- Target Of Assay: GAL4 DBD-CfEcR(DEF)/VP16AD-MmRXRE (Choristoneura fumiferana, UniProt O77240)
- Experiment: 13B3 Assay (CHO stable cell line, luciferase reporter)
- Run Conditions: maximum fold induction at any concentration relative to that of GS-E ligand; CHO 13B3 cells
As shown below, each of these compounds has a reported 13B3 assay Rel Max FI value.

Example results:
* CCc1c(OC)cccc1C(=O)NN(C(=O)c1cc(C)cc(C)c1)C(C)(C)C | 1
* Cc1cc(C)cc(C(=O)N(NC(=O)c2ccc(CC#N)cc2)C(C)(C)C)c1 | 0.853
* Cc1cc(C)cc(C(=O)N(NC(=O)c2cccc(OC(F)(F)F)c2C)C(C)(C)C)c1 | 1.004

Query: Report measured 13B3 assay Rel Max FI; entry is COc1cccc(C(=O)NN(C(=O)c2cc(C)cc(C)c2)C(C)(C)C)c1CSC
Response: 0.20
